Source: ChEMBL document CHEMBL1140920

Molecular target: Kappa-type opioid receptor (Homo sapiens)
Sequence (P41145 whole entry): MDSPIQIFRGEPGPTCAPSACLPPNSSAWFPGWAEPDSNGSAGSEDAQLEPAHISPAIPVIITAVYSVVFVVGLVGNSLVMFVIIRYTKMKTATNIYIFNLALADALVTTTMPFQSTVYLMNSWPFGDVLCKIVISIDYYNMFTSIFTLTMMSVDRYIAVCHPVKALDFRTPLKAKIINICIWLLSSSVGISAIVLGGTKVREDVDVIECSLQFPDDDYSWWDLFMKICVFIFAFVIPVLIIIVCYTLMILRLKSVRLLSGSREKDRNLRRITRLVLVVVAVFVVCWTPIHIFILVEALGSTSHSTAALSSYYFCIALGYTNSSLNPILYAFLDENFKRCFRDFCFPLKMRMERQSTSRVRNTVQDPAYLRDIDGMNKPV
pKi: −log10 of the molar value.
Short version: pKi at least 8 is condition met, less is condition not met.

// below: answered compounds
O=C(N[C@@H]1CC[C@@]2(O)[C@H]3Cc4ccc(O)c5c4[C@@]2(CCN3CC2CC2)[C@H]1O5)c1cnc2ccccc2c1 : condition met
O=C(N[C@@H]1CC[C@@]2(O)[C@H]3Cc4ccc(O)c5c4[C@@]2(CCN3CC2CC2)[C@H]1O5)c1ccc2ccccc2n1 : condition met
O=C(N[C@H]1CC[C@@]2(O)[C@H]3Cc4ccc(O)c5c4[C@@]2(CCN3CC2CC2)[C@H]1O5)c1ccc2ccccc2c1 : condition not met

Query block: Please indicate if the recorded pKi for O=C(N[C@H]1CC[C@@]2(O)[C@H]3Cc4ccc(O)c5c4[C@@]2(CCN3CC2CC2)[C@H]1O5)c1ccccc1 meets or exceeds 8.
Result block: condition not met

Query block: Please indicate if the recorded pKi for O=C(N[C@H]1CC[C@@]2(O)[C@H]3Cc4ccc(O)c5c4[C@@]2(CCN3CC2CC2)[C@H]1O5)c1ccncc1 meets or exceeds 8.
Result block: condition not met

Query block: Please indicate if the recorded pKi for O=C(N[C@@H]1CC[C@@]2(O)[C@H]3Cc4ccc(O)c5c4[C@@]2(CCN3CC2CC2)[C@H]1O5)c1cccnc1 meets or exceeds 8.
Result block: condition met

Query block: Please indicate if the recorded pKi for O=C(N[C@@H]1CC[C@@]2(O)[C@H]3Cc4ccc(O)c5c4[C@@]2(CCN3CC2CC2)[C@H]1O5)c1ccc2ccccc2c1 meets or exceeds 8.
Result block: condition not met
